# Test method notes: Hansen and Hildebrand solubility parameters
Output satisfied for Hansen Solubility Parameters δn not less than 6 J/mL; output not satisfied otherwise.

Compound | Answer label
OCC1CCCO1 (stereo not shown) [THFA TetraHydroFurfurylAlcohol, TetraHydroFurfurylAlcohol] | satisfied
Cc1ccc(C)cc1 [p-Xylène] | not satisfied
CCCCOC(C)=O [n-butyl acetate] | satisfied
CC1=CC(=O)CC(C)(C)C1 [Isophorone] | satisfied
O=C1CCCCC1 [Cyclohexanone] | not satisfied
CCOC(C)=O [Ethyl Acetate] | satisfied

###

Catalogue of Hansen Solubility Parameters δp readings, one per entry.
# Test method notes: Hansen and Hildebrand solubility parameters
Endpoint label: Hansen Solubility Parameters δp (J/mL)

Molecule | Assay value
Cc1ccc(C)cc1 | 1
OCC1CCCO1 (stereo not shown) [THFA TetraHydroFurfurylAlcohol, TetraHydroFurfurylAlcohol] | 8.2
O=C1CCCCC1 | 6.3
CC1=CC(=O)CC(C)(C)C1 | 8.2
CCCCOC(C)=O [n-butyl acetate] | 3.7
CCOC(C)=O [Ethyl Acetate] | 5.3
CCCCOCC1CCCO1 (stereo not shown) [n-butyl THF, 2-(butoxymetyl)tetrahydrofuraan] | 4.74
